# test-target: T1, His-tagged CEACAM1 (human, UniProt P13688 35-428)
# T1 construct: 45 kDa SPR analyte; also called CEACAM1-HIS; CEACAM1 analyte
# T1 sequence: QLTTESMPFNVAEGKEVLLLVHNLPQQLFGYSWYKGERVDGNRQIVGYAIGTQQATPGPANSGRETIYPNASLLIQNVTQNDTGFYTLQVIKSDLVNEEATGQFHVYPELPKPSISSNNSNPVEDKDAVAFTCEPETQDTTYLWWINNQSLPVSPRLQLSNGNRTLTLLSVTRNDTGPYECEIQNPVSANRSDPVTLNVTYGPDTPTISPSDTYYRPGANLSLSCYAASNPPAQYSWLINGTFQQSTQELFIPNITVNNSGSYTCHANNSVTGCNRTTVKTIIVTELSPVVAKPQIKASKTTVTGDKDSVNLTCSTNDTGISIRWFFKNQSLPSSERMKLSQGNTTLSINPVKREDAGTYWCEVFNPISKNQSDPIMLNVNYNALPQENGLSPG
# measurement-description: SPR single-cycle, IgG captured
observation-type: relative KD to VH0/Vκ0
Give the figure only, with no unit attached.

Consider the worked cases shown below.
binder	observed
VH1/Vκ2 (antibody, IgG4, V domains shown, IgG4 (S241P), kappa) VH: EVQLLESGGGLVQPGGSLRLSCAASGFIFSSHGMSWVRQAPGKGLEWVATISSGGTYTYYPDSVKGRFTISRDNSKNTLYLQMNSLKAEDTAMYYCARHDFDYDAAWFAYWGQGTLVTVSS VL: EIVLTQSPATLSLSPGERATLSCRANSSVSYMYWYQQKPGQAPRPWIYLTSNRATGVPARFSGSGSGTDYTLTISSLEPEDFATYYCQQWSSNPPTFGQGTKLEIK	3.2
VH1/Vκ9 (antibody, IgG4, V domains shown, IgG4 (S241P), kappa) VH: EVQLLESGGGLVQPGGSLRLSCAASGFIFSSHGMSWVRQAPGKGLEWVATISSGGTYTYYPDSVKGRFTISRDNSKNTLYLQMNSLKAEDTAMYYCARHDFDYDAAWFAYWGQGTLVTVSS VL: EIVLTQSPATLSLSPGERATLSCRANSSVSYMYWYQQKPGQAPRPLIYLTSNRATGVPARFSGSGSGTDYTLTISSLEPEDFATYYCQQWSSNPPTFGQGTKLEIK	3.4
VH2/Vκ11 (antibody, IgG4, V domains shown, IgG4 (S241P), kappa) VH: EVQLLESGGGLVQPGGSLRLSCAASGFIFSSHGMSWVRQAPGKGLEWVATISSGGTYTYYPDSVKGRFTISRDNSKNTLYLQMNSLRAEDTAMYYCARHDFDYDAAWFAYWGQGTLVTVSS VL: EIVLTQSPATLSLSPGERATLSCRANSSVSYMYWYQQKPGQAPRPWIYLTSNRATGIPARFSGSGSGTDYTLTISSLEPEDFAVYYCQQWSSNPPTFGQGTKLEIK	3
VH1/Vκ10 (antibody, IgG4, V domains shown, IgG4 (S241P), kappa) VH: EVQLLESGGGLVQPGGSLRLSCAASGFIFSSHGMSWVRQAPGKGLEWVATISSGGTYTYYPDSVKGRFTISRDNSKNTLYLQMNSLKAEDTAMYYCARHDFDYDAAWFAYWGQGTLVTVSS VL: EIVLTQSPATLSLSPGERATLSCRANSSVSYMYWYQQKPGQAPRPWIYLTSNRATGIPARFSGSGSGTDFTLTISSLEPEDFATYYCQQWSSNPPTFGQGTKLEIK	3.5
VH2/Vκ7 (antibody, IgG4, V domains shown, IgG4 (S241P), kappa) VH: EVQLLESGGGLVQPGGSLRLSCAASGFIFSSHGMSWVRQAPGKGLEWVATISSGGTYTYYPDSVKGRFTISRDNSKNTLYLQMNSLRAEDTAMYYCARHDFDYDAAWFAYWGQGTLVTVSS VL: EIVLTQSPATLSLSPGERATLSCRANSSVSYMYWYQQKPGQAPRPWIYLTSNRATGVPARFSGSGSGTDFTLTISSLEPEDFATYYCQQWSSNPPTFGQGTKLEIK	3.7

Identify the reported relative KD to VH0/Vκ0 for the following entry. VH3/Vκ4 (antibody, IgG4, V domains shown, IgG4 (S241P), kappa) VH: EVQLLESGGGLVQPGGSLRLSCAASGFIFSSHGMSWVRQAPGKGLEWVATISSGGTYTYYADSVKGRFTISRDNSKNTLYLQMNSLRAEDTAMYYCARHDFDYDAAWFAYWGQGTLVTVSS VL: EIVLTQSPATLSLSPGERATLSCRANSSVSYMYWYQQKPGQAPRPWIYLTSNRATGIPARFSGSGSGTDYTLTISSLEPEDFATYYCQQWSSNPPTFGQGTKLEIK
1.9

Identify the reported relative KD to VH0/Vκ0 for the following entry. VH4/Vκ4 (antibody, IgG4, V domains shown, IgG4 (S241P), kappa) VH: EVQLLESGGGLVQPGGSLRLSCAASGFIFSSHGMSWVRQAPGKGLEWVSTISSGGTYTYYADSVKGRFTISRDNSKNTLYLQMNSLRAEDTAVYYCARHDFDYDAAWFAYWGQGTLVTVSS VL: EIVLTQSPATLSLSPGERATLSCRANSSVSYMYWYQQKPGQAPRPWIYLTSNRATGIPARFSGSGSGTDYTLTISSLEPEDFATYYCQQWSSNPPTFGQGTKLEIK
2.9

Identify the reported relative KD to VH0/Vκ0 for the following entry. VH1/Vκ12 (antibody, IgG4, V domains shown, IgG4 (S241P), kappa) VH: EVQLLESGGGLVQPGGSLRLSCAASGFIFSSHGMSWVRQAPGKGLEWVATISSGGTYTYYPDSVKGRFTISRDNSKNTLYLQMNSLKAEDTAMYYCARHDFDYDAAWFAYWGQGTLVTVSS VL: EIVLTQSPATLSLSPGERATLSCRANSSVSYMYWYQQKPGQAPRPLIYLTSNRATGIPARFSGSGSGTDYTLTISSLEPEDFATYYCQQWSSNPPTFGQGTKLEIK
3.5

Identify the reported relative KD to VH0/Vκ0 for the following entry. VH0/Vκ1 (antibody, IgG4, V domains shown, IgG4 (S241P), kappa; also called VH0/Vκ1 (control)) VH: EVQLVESGGDLVKPGGSLKLACAASGFIFSSHGMSWVRQTPDKRLEWVATISSGGTYTYYPDSVKGRFTISRDNDKNTLYLQMNSLKSEDTAMYYCARHDFDYDAAWFAYWGQGTLVTVSS VL: QIVLTQSPALLSLSPGERATMSCSANSSVSYMYWYRQKPGQAPKPWIYLTSNLASGVPARFSGSGSGTDYTLTISSLEAEDFATYYCQQWSSNPPTFGQGTKLEIK
1.2

Identify the reported relative KD to VH0/Vκ0 for the following entry. VH2/Vκ2 (antibody, IgG4, V domains shown, IgG4 (S241P), kappa) VH: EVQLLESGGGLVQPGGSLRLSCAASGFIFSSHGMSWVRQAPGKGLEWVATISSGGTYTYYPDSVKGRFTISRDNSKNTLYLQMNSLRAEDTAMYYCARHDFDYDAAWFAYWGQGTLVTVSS VL: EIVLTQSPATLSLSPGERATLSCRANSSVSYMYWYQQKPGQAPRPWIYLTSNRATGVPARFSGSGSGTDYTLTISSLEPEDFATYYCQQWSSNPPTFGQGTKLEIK
2.3

Identify the reported relative KD to VH0/Vκ0 for the following entry. VH2/Vκ12 (antibody, IgG4, V domains shown, IgG4 (S241P), kappa) VH: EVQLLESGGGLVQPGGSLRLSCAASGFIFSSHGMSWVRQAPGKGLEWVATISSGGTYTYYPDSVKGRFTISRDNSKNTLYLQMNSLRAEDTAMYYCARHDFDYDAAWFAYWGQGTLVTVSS VL: EIVLTQSPATLSLSPGERATLSCRANSSVSYMYWYQQKPGQAPRPLIYLTSNRATGIPARFSGSGSGTDYTLTISSLEPEDFATYYCQQWSSNPPTFGQGTKLEIK
3.5

Recorded values, source patent US20250074980A1.
